Tested on: Hepatitis C virus
Method: Antiviral activity against HCV pseudoparticle harboring HCV envelope protein E1 and E2 assessed as inhibition of pseudoparticle entry into human Huh7 cells at 5 uM measured after 3 days by Bright-Glo luciferase reporter gene assay relative to control
Assay type: functional, Hepacivirus hominis
Protocol Conditions: Huh-7, 72 h
Parameter: inhibition at 5 µM (%)
Value expressed in %; do not type the unit.

CC1(C)CC[C@]2(C(=O)O)[C@H](O)C[C@]3(C)C(=CC[C@@H]4[C@@]5(C)CC[C@H](O)C(C)(C)[C@@H]5CC[C@]43C)[C@@H]2C1
69.6
C=C[C@@H]1C2=CCOC(=O)C2=CO[C@H]1O[C@@H]1O[C@H](CO)[C@H](S)[C@H](O)[C@H]1OC(=O)c1ccccc1
4.5
C=C[C@@H]1C2=CCOC(=O)C2=CO[C@H]1O[C@@H]1O[C@H](COC(=O)c2ccccc2)[C@H](SC(C)=O)[C@H](OC(=O)c2ccccc2)[C@H]1OC(=O)c1ccccc1
26.6
C=C[C@@H]1C2=CCOC(=O)C2=CO[C@H]1O[C@@H]1O[C@H](CO)[C@@H](F)[C@H](O)[C@H]1O
45.9

Turning now to a further record.
State, for Hepatitis C virus, measured inhibition at 5 µM of the compound listed here: C=C[C@@H]1C2=CCOC(=O)C2=CO[C@H]1O[C@@H]1O[C@H](CO)[C@@H](S)[C@H](O)[C@H]1O
18.6

----------
System: Hepatitis C virus
Method: Antiviral activity against HCV pseudoparticle harboring HCV envelope protein E1 and E2 assessed as inhibition of pseudoparticle entry into human Huh7 cells at 5 uM measured after 3 days by Bright-Glo luciferase reporter gene assay relative to control
Format: functional, Hepacivirus hominis
Protocol Conditions: Huh-7, 72 h
Everything with inhibition at 5 µM lower than 2% is 0; everything else, including exactly 2%, is 1.

Reference set, count: 5
C=C[C@@H]1C2=CCOC(=O)C2=CO[C@H]1O[C@@H]1O[C@H](CF)[C@@H](OC(C)=O)[C@H](OC(C)=O)[C@H]1OC(C)=O
1
C=C[C@@H]1C2=CCOC(=O)C2=CO[C@H]1O[C@@H]1O[C@H](CS)[C@@H](O)[C@H](O)[C@H]1O
0
C=C[C@@H]1C2=CCOC(=O)C2=CO[C@H]1O[C@@H]1O[C@H](COC(=O)c2ccccc2)[C@@H](O)[C@H](OC(=O)c2ccccc2)[C@H]1OC(=O)c1ccccc1
1
C=C[C@@H]1C2=CCOC(=O)C2=CO[C@H]1O[C@@H]1O[C@H](CO)[C@@H](N=[N+]=[N-])[C@H](O)[C@H]1O
0
C=C[C@@H]1C2=CCOC(=O)C2=CO[C@H]1O[C@@H]1O[C@H](CO)[C@@H](O)[C@H](O)[C@H]1O [GENTIOPICROSIDE]
1

Quick check, inhibition at 5 µM >= 2%? C=C[C@@H]1C2=CCOC(=O)C2=CO[C@H]1O[C@@H]1O[C@H](CNC(C)=O)[C@@H](O)[C@H](O)[C@H]1O
1

----------
Method: Antiviral activity against Influenza A virus (A/WSN/1933(H1N1)) infected in MDCK cells assessed as reduction in virus-induced cytopathic effect after 40 hrs by CellTiter-Glo assay
Assay type: functional, cell-based
Parameter: pIC50
The value called pIC50 is obtained by taking minus log10 of the concentration in mol/L.

Give me measured pIC50, please, for this compound: C=C[C@@H]1C2=CCOC(=O)C2=CO[C@H]1O[C@@H]1OC(COC(=O)c2ccccc2)=C[C@H](OC(=O)c2ccccc2)[C@H]1OC(=O)c1ccccc1
4.36

Please indicate pIC50 recorded for CCOC(=O)C1=C[C@@H](OC(CC)CC)[C@H](NC(C)=O)[C@@H](N)C1
4.47

Retrieve pIC50 measured for C=C[C@@H]1C2=CCOC(=O)C2=CO[C@H]1O[C@@H]1O[C@H](CO)[C@H](F)[C@H](O)[C@H]1O and print it.
4.34

Provide pIC50 value for the following compound: C=C[C@@H]1C2=CCOC(=O)C2=CO[C@H]1O[C@@H]1O[C@H](COC(=O)c2ccccc2)[C@@H](OS(C)(=O)=O)[C@H](OC(=O)c2ccccc2)[C@H]1OC(=O)c1ccccc1
4.40
